The measurements presented in this section are drawn from ChEMBL document CHEMBL4689842.

Test system: U2OS
Test: Multiplex assay against U2OS
Format: toxicity, cell-based
Conditions: human, 24 h, 10 µM, compound concentration 10 uM, replicate 2
Class field: derived from Population Pyknosed Nuclei (%); ranges bottom range: < 5%; center range: ≥ 5% and < 30%; top range: ≥ 30%

Example cases with answers are listed next.
Cl.O=c1c2cccn2c2ccccc2n1CCCN1CCC(c2ccc(Cl)cc2)CC1 ... center range
CCN1CCN(Cc2ccc(Nc3ncc(F)c(-c4cc(F)c5nc(C)n(C(C)C)c5c4)n3)nc2)CC1.CS(=O)(=O)O ... top range
O=C(Nc1ccc(-c2ccnc(Nc3ccc(N4CCOCC4)cc3)n2)cc1)[C@@H]1CCCN1 ... center range
Cc1ccc2nc(NCCN)c3ncc(C)n3c2c1.O=C(O)C(F)(F)F.O=C(O)C(F)(F)F ... top range
C=C1/C(=C\C=C2/CCC[C@]3(C)[C@@H]([C@H](C)/C=C/[C@H](C)C(C)C)CC[C@@H]23)C[C@@H](O)C[C@@H]1O ... bottom range
O=C1NC(=O)C(c2cnc3ccccn23)=C1c1cn2c3c(cc(F)cc13)CN(C(=O)N1CCCCC1)CC2 ... center range
O=C(Nc1ccc(Cl)cc1)Nc1cccc(-c2cccc(N3CCCC3)n2)c1 ... top range
Cc1ccc(C(=O)Nc2cccc(C(F)(F)F)c2)cc1Nc1nc(-c2cccnc2)nc2c1cnn2C ... top range

Please report the category associated with "CCCS(=O)(=O)Nc1ccc(F)c(C(=O)c2c[nH]c3ncc(Cl)cc23)c1F" , nothing else. bottom range

Please report the category associated with "CCOc1cc(C(=O)N2CCC(N3CCN(C)CC3)CC2)ccc1Nc1ncc2c(n1)N(C1CCCC1)c1ccccc1C(=O)N2C" , nothing else. top range

Please report the category associated with CN(C)C(=O)C(CCN1CCC(O)(c2ccc(Cl)cc2)CC1)(c1ccccc1)c1ccccc1.Cl [LOPERAMIDE HYDROCHLORIDE] , nothing else. top range

Please report the category associated with "COc1cccc2cc(-c3nc([C@H]4CC[C@H](C(=O)O)CC4)n4ncnc(N)c34)[nH]c12" , nothing else. bottom range

Please report the category associated with "Cl.Oc1ccc2c3c1O[C@H]1c4[nH]c5c(c4C[C@@]4(O)[C@@H](C2)N(CC2CC2)CC[C@]314)C[C@@]1(O)[C@H]2Cc3ccc(O)c4c3[C@@]1(CCN2CC1CC1)[C@H]5O4" , nothing else. center range
